Sourced from patent US20230035798A1

# binding, % of WT annotations
Measurement Target: T1, membrane LIGHT W198A (human, UniProt O43557 1-240)
T1 chain: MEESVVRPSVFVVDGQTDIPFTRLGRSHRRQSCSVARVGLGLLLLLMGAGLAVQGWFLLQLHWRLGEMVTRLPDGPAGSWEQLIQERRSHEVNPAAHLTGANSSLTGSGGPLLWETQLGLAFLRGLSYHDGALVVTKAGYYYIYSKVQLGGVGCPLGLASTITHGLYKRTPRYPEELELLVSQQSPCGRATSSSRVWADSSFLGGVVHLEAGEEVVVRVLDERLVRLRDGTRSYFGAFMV
Assay Protocol: flow cytometry, transfected HEK293FF, mAb at EC50
Description: The day of transfection the cells were seeded in a 24-well plate at 0.6×10⁶ cells/well. […] The cells were then washed as above, resuspended in 100 μl of FACS buffer and binding of the antibodies to the constructs was measured using flow cytometry and a total of 10,000 cells were acquired for each sample. […]
// note: answer is a bare numeric in %

[[record]]
binder = "3A07 (antibody, human IgG4, V domains shown, chimeric human IgG4 (S-to-P, L-to-E at 248), human CL; also called Parental 3A07) VH: QVQLQQSGAELVRPGAPVTLSCKASDYTFTDSEIHWVKQTPVHGLEWIGEIDPETGGTAYNQKFKGKATLTADKSSSTAYMELRSLTSEDSAVYYCSRETDYFFDYWGQGTTLTVSS VL: ENVLTQSPAIMSASPGEKVTMTCSASSSVSYMYWYQQRPGSSPRLLIYDTSNLASGVPVRFSGSGSGTSYSLTISRMEAEDAATYYCQQWSSYPLTFGSGTKLEIK"
reported = 82


As a next step, examine the binder that follows.
Incoming: Note down binding, % of WT recorded for 2B11 (antibody, human IgG4, V domains shown, chimeric human IgG4 (S-to-P, L-to-E at 248), human CL; also called Parental 2B11) VH: EVQLVESGAELVRPGVSVKISCKGSGYTFTDYAIHWVKQSHAKSLEWIGVISTYYGDASYNQKFKGKATMTVDKSSSTAYMELARLTSEDSAIYYCARSRGEYGNYDAMDYWGQGTSVTVSS VL: DIVLTQSPASLAVSLGQRATISCRASESVDSYGNSFMHWYQQKPGQPPKLLIYRASNLESGIPARFSGSGSRTDFTLTINPVEADDVATYYCQQSNEDPYTFGGGTKLEIK
Outgoing: 77
